Molecular target: Histamine H3 receptor (Homo sapiens, UniProt Q9Y5N1)
Sequence (Q9Y5N1 whole entry): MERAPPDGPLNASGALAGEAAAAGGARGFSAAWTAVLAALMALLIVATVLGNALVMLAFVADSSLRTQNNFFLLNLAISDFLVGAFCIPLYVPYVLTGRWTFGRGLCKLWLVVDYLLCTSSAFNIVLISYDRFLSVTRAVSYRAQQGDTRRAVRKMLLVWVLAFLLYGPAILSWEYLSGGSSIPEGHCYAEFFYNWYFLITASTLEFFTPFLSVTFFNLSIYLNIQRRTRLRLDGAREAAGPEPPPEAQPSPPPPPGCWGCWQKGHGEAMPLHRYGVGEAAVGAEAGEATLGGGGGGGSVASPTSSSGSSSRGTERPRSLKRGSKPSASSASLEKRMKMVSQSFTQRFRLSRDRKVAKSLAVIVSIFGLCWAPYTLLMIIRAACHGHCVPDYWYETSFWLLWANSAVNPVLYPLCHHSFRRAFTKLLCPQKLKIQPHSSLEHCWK
pKi: −log10 of the molar value.
pKi reference
Endpoint Label: pKi

> print(dat)
                                   structure  numeric.readout
 1  O=C(c1ccc(-c2ccc3c(c2)CCN(CCN2CCCC2)C3=O)cc1F)N1CCCC1             8.89
 2  NC(=O)c1ccc(-c2ccc3c(c2)CCN(CCN2CCCC2)C3=O)cc1             8.22
 3  O=C1c2ccc(-c3ccc(F)c(F)c3)cc2CCN1CCN1CCCC1             8.11
 4  N#Cc1cccc(-c2ccc3c(c2)CCN(CCN2CCCC2)C3=O)c1             8.47
 5  CN(C)C(=O)c1ccc(-c2ccc3c(c2)CCN(CCN2CCCC2)C3=O)cc1             9.05
 6  N#Cc1ccc(-c2ccc3c(c2)CCN(CCCN2CCCC2)C3=O)cc1             8.16
 7      O=C1c2ccc(-c3ccccc3)cc2CCN1CCN1CCCC1             7.94
 8  C[C@@H]1CCCN1CCN1CCc2cc(Oc3ccc(C#N)cc3)ccc2C1=O             9.22
 9  O=C1c2ccc(-c3cccc(C(F)(F)F)c3)cc2CCN1CCN1CCCC1             8.19
10     O=C1c2ccc(-c3ccccc3F)cc2CCN1CCN1CCCC1             7.85
11  CN(C)C(=O)c1ccc(-c2ccc3c(c2)CCN(CCN2CCCC2)C3=O)c(F)c1             8.51
12  O=C1c2ccc(-c3ccc(F)cc3)cc2CCN1CCN1CCCCCC1             8.24
13  N#Cc1ccc(-c2ccc3c(c2)CCN(CCCN2CCCCC2)C3=O)cc1             7.74
14  C[C@@H]1CCCN1CCN1CCc2cc(-c3ccc(F)cc3)ccc2C1=O             8.92
15  CNC(=O)c1ccc(-c2ccc3c(c2)CCN(CCN2CCCC2)C3=O)c(F)c1             8.77
16  O=C1c2ccc(-c3ccc(C(F)(F)F)cc3)cc2CCN1CCN1CCCC1             8.03
17  O=C1c2ccc(-n3cnc4ccccc43)cc2CCN1CCN1CCCC1             9.10
18  O=C(NC1CCCC1)c1ccc(-c2ccc3c(c2)CCN(CCN2CCCC2)C3=O)cc1             8.72
19  C[C@H]1CCCN1C(=O)c1ccc(-c2ccc3c(c2)CCN(CCN2CCCC2)C3=O)cc1             8.77
20  CCNC(=O)c1ccc(-c2ccc3c(c2)CCN(CCN2CCC[C@H]2C)C3=O)cc1             9.00

----------
Assay: Toxicity in rat
Format: organism-based
Conditions: in vivo
Endpoint Label: MTD (mg/kg/day)

> print(dat)
                                  structure  numeric.readout
1  CN(C)C(=O)c1ccc(-c2ccc3c(c2)CCN(CCN2CCCC2)C3=O)cc1.Cl              200

----------
pKi reference
Biological target: Histamine H3 receptor (Rattus norvegicus)
Sequence (Q9QYN8 whole entry): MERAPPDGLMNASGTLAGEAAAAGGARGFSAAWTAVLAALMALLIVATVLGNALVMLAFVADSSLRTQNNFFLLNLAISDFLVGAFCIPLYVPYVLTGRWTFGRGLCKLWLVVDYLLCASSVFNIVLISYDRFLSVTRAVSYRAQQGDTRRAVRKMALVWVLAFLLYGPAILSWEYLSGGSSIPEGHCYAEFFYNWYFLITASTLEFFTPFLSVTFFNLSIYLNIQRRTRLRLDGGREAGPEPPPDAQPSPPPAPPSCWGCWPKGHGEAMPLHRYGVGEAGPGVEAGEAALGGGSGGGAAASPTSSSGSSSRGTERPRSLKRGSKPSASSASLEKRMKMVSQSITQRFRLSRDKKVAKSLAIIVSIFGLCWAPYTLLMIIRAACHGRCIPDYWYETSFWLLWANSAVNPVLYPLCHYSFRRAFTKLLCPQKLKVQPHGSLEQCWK
pKi: −log10 of the molar value.
Endpoint Label: pKi

> print(dat)
                                  structure  numeric.readout
1  O=C1c2ccc(-n3cnc4ccccc43)cc2CCN1CCN1CCCC1             6.76
2   O=C1c2ccc(-c3ccc(F)cc3)cc2CCN1CCN1CCCC1             7.07
3  C[C@@H]1CCCN1CCN1CCc2cc(-c3ccc(F)cc3)ccc2C1=O             7.64

----------
Assay: Toxicity in dog
Type: organism-based, Canis lupus familiaris
Conditions: in vivo
Endpoint Label: MTD (mg/kg/day)

> print(dat)
                                  structure  numeric.readout
1  CN(C)C(=O)c1ccc(-c2ccc3c(c2)CCN(CCN2CCCC2)C3=O)cc1.Cl               20

----------
Experiment: Half life in Sprague-Dawley rat liver microsomes at 1 uM after 30 mins in presence of NADPH and UDPGA
Type: ADME, Microsome
Endpoint Label: half-life at 1 µM (min)

> print(dat)
                                  structure  numeric.readout
1  CN(C)C(=O)c1ccc(-c2ccc3c(c2)CCN(CCN2CCCC2)C3=O)cc1               26

----------
Assay: Ratio of Brain AUC (0 to infinity) to plasma AUC (0 to infinity) in rat at 10 mg/kg, po
Format: ADME, organism-based
Set-up: dose 10 mg/kg, route oral
Details: read-out: BPR
Endpoint Label: Kp

> print(dat)
                                  structure  numeric.readout
1  CN(C)C(=O)c1ccc(-c2ccc3c(c2)CCN(CCN2CCCC2)C3=O)cc1             0.27

----------
pKi reference
Target sequence: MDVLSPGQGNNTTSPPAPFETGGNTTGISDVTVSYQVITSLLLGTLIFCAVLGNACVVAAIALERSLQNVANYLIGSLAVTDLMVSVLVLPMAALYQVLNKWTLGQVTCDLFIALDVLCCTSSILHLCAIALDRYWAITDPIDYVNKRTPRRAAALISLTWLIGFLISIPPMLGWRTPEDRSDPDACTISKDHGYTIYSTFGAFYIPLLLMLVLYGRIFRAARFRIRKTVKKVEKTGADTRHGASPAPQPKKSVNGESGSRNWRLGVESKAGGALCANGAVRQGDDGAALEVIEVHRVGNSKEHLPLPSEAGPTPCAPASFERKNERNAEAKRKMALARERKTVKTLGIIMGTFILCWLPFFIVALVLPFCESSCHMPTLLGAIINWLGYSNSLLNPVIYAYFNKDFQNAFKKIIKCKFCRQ
pKi: −log10 of the molar value.
Endpoint Label: pKi

> print(dat)
                                  structure  numeric.readout
1  C[C@@H]1CCCN1CCN1CCc2cc(-c3ccc(C(=O)N4CCCC4)cc3)ccc2C1=O             4.91
2  CN(C)C(=O)c1ccc(-c2ccc3c(c2)CCN(CCN2CCCC2)C3=O)cc1             5.06
3  C[C@H]1CCCN1C(=O)c1ccc(-c2ccc3c(c2)CCN(CCN2CCCC2)C3=O)cc1             5.04
4  C[C@@H]1CCCN1C(=O)c1ccc(-c2ccc3c(c2)CCN(CCN2CCCC2)C3=O)cc1             5.01

----------
Biological target: CYP3A4 (Homo sapiens)
Sequence (P08684 whole entry): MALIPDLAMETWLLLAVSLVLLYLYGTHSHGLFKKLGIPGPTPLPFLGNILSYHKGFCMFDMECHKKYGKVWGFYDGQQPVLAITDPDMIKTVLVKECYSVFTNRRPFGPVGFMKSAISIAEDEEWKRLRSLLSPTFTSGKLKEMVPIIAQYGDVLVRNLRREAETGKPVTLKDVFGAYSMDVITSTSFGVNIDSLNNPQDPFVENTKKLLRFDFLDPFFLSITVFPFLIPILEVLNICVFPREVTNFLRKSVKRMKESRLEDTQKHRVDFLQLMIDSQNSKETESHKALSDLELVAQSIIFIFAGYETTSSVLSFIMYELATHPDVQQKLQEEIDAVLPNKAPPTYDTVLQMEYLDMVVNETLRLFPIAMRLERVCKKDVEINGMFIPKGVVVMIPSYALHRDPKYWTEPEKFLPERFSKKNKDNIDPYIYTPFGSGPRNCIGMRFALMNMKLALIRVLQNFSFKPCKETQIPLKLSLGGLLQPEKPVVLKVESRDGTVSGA
Assay: Inhibition of CYP3A4 at 3 uM
Type: ADME
Endpoint Label: inhibition at 3 µM (%)

> print(dat)
                                  structure  numeric.readout
1  O=C1c2ccc(-c3ccc(F)cc3)cc2CCN1CCN1CCCCCC1               47

----------
Assay: Volume of distribution in beagle dog at 2 mg/kg, iv administered as single bolus dose
Format: ADME, organism-based, Canis lupus familiaris
Set-up: dose 2 mg/kg, route intravenous
Details: in vivo
Endpoint Label: Vd (L/kg)

> print(dat)
                                  structure  numeric.readout
1  CN(C)C(=O)c1ccc(-c2ccc3c(c2)CCN(CCN2CCCC2)C3=O)cc1.Cl              3.1

----------
Assay: Fraction unbound in human plasma
Format: ADME, cell-free
Endpoint Label: fraction unbound

> print(dat)
                                  structure  numeric.readout
1  CN(C)C(=O)c1ccc(-c2ccc3c(c2)CCN(CCN2CCCC2)C3=O)cc1             0.59

----------
Molecular target: hERG (KCNH2) (Homo sapiens)
Sequence (Q12809 whole entry): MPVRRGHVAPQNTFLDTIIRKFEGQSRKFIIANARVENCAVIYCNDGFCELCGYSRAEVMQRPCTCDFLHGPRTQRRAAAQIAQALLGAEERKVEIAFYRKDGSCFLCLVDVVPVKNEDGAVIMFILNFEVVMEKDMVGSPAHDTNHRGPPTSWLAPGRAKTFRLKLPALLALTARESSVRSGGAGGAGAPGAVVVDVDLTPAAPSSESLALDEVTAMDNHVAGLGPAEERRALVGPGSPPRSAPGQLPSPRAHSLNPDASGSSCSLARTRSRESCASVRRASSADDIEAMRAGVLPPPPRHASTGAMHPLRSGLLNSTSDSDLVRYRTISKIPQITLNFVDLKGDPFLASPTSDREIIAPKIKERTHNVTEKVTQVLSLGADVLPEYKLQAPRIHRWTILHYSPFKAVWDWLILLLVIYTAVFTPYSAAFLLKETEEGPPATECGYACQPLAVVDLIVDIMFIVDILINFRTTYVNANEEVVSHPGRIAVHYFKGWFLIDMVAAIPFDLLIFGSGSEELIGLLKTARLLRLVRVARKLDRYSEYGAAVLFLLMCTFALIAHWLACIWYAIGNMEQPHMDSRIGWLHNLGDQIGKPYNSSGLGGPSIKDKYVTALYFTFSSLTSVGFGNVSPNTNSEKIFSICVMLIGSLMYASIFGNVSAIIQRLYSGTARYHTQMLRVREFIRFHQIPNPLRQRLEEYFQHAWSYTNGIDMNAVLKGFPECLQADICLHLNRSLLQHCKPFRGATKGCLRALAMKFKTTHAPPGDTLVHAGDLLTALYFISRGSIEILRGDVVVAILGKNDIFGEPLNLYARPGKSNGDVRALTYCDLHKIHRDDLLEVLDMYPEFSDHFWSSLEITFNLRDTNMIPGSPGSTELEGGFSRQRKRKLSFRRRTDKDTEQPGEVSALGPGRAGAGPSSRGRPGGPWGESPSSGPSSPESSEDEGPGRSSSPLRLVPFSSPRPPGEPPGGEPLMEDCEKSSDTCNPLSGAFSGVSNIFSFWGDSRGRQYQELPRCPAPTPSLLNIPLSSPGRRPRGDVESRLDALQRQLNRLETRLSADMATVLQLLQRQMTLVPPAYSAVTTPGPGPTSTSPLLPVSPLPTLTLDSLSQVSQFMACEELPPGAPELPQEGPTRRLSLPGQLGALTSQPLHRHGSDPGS
Experiment: Inhibition of human ERG at 10 uM by IonWorks assay
Endpoint Label: inhibition at 10 µM (%)

> print(dat)
                                  structure  numeric.readout
1  C[C@@H]1CCCN1CCN1CCc2cc(Oc3ccc(C#N)cn3)ccc2C1=O               89
2  C[C@@H]1CCCN1CCN1CCc2cc(Oc3ccc(C#N)nc3)ccc2C1=O               99
3  O=C(c1ccc(-c2ccc3c(c2)CCN(CCN2CCCC2)C3=O)cc1)C1CC1               65
4      O=C1c2ccc(-c3ccncc3)cc2CCN1CCN1CCCC1               93
5  C[C@@H]1CCCN1CCN1CCc2c(cccc2-c2ccc(C#N)cc2)C1=O               96
6  C[C@@H]1CCCN1CCN1CCc2ccc(-c3ccc(C#N)cc3)cc2C1=O               98
7  C[C@@H]1CCCN1CCN1Cc2cc(-c3ccc(C#N)cc3)ccc2C1=O               98
8  C[C@@H]1CCCN1CCN1CCc2cc(Oc3ccc(C#N)cc3)ccc2C1=O               95
9  NC(=O)c1ccc(-c2ccc3c(c2)CCN(CCN2CCCC2)C3=O)cc1               14
